Test: chemical genetic growth profiling, strain panel (AID 1159580);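 further: tested at 20 µM; growth read once vehicle control cultures reached saturation at 30 °C; 1 = growth at the plate median or of vehicle wells; lower values mean less growth of the strain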
Settings: S. cerevisiae deletion strains, growth OD, locus YBR171W, strain sec66, hits give low values
About 2,000 (36%) of roughly 5,500 compounds were called active. Roughly 18% stayed inconclusive and do not appear here. Some of the results follow.
readout label: normalized growth
Answers are plain numbers.

Example entries and their recorded answers appear below.
compound	readout label	number
CCCCCCCCCCC[C@@H](C[C@H]1OC(=O)[C@H]1CCCCCC)OC(=O)[C@@H](CC(C)C)NC=O	normalized growth	1.06
Cc1ccc(C(=O)Nc2ccc(S(=O)(=O)O)c3cc(S(=O)(=O)O)cc(S(=O)(=O)O)c23)cc1NC(=O)c1cccc(NC(=O)Nc2cccc(C(=O)Nc3cc(C(=O)Nc4ccc(S(=O)(=O)O)c5cc(S(=O)(=O)O)cc(S(=O)(=O)O)c45)ccc3C)c2)c1	normalized growth	1.03

What value of normalized growth has been recorded for this entry: CC#CC1(O)CCC2C3CCC4=CC(=O)CCC4=C3C(c3ccc(N(C)C)cc3)CC21C (stereo not drawn)
1.01

----------
Hi there, I'd appreciate the recorded normalized growth for every entry that follows.
Experiment: chemical genetic growth profiling, strain panel (AID 1159580)
Details: S. cerevisiae deletion strains, growth OD, locus YCL069W, strain vba3, hits give low values
Screen size: about 5,500 compounds; about 2,000 (36%) were called active. Not shown: some 18% with an inconclusive outcome. Some of the results follow.
Answers are plain numbers.

Example entries and their recorded answers appear below.
compound	normalized growth
O=C(Oc1cc(O)cc2c1C[C@@H](OC(=O)c1cc(O)c(O)c(O)c1)[C@@H](c1cc(O)c(O)c(O)c1)O2)c1cc(O)c(O)c(O)c1	0.992
CC(=O)Oc1cc(OC(C)=O)c2c(c1)O[C@H](c1ccc(OC(C)=O)c(OC(C)=O)c1)[C@H](OC(C)=O)C2	1
C[n+]1c2cc(N)ccc2cc2ccc(N)cc21	0.588
O=c1c(-c2ccc(O)cc2)coc2cc(O)ccc12	0.995
O=C(/C=C/c1ccc(O)c(O)c1)OC(Cc1ccc(O)c(O)c1)C(=O)O (stereo unspecified)	1.02
CCCCCCCCCCC[C@@H](C[C@H]1OC(=O)[C@H]1CCCCCC)OC(=O)[C@@H](CC(C)C)NC=O	1.05
COc1ccc(C(=O)CC(=O)O)c2c1C=CC(C)(C)O2	1.01
CCC(C)C(=O)O[C@@H]1C[C@@]2(C)[C@H](c3ccoc3)OC(=O)CC23OC2(C)O[C@]14[C@]1(C)[C@@H](CC(=O)OC)C5(C)CC1(O)[C@](O)(C5OC(=O)C1(C)OC1C)[C@@H](OC(C)=O)[C@]34O2 (stereo partly specified)	0.98

Hi, could you look up normalized growth for each item in my list?
1. O=C(NC(=O)c1ccccc1Cl)Nc1ccc(OC(F)(F)F)cc1
2. CC[C@@]1(O)C[C@H](O)c2c(cc3c(c2O)C(=O)c2c(O)ccc(O)c2C3=O)[C@H]1C(=O)OC
3. C#CCN(C)Cc1ccccc1
4. COc1ccc(-c2coc3cc(O)ccc3c2=O)c(O)c1O
5. Cc1ncc(CNC(=O)N(CCCl)N=O)c(N)n1

1.04
0.993
1.02
0.979
1.01

Hi, could you look up normalized growth for each item in my list?
1. O=C(O[C@@H]1Cc2c(O)cc(O)cc2O[C@@H]1c1ccc(O)c(O)c1)c1cc(O)c(O)c(O)c1
2. C=C1C2CC[C@@]3(C)[C@H](c4ccoc4)OC(=O)C[C@]13O[C@H]1CC(=O)C(C)(C)[C@H](C(OC(C)=O)C(=O)OC)[C@@]21C (stereo partly specified)
3. Cc1ccc(S(=O)(=O)NC(=O)NN2CCCCCC2)cc1

1: 1; 2: 1; 3: 0.986

Hi, could you look up normalized growth for each item in my list?
1. CN1CC(=O)N=C1N
2. N=c1ccn2c(n1)OC1C(O)C(CO)OC12 (stereo unspecified)
3. COc1ccc(C(CN(C)C)C2(O)CCCCC2)cc1 (stereo unspecified)
4. COc1ccc(-c2coc3cc(O)ccc3c2=O)c(OC)c1O
5. COc1ccc2c(c1)OC/C(=C/c1ccc(OC)c(OC)c1)C2=O
6. CC1COc2c(N3CCN(C)CC3)c(F)cc3c(=O)c(C(=O)O)cn1c23 (stereo unspecified)

1. 1.02
2. 1.01
3. 0.974
4. 0.981
5. 0.873
6. 0.99

Hi, could you look up normalized growth for each item in my list?
1. COC(=O)[C@@H]1OC(=O)C2OC23[C@@]1(C)CCC1[C@]2(C)C(C[C@H](O)[C@]13C)C(C)(C)[C@H](OC(C)=O)C[C@@H]2OC(C)=O (stereo partly specified)
2. COc1ccc(-c2coc3cc(O)ccc3c2=O)c(OC)c1
3. COc1ccc(C2CNC(=O)C2)cc1OC1CCCC1 (stereo unspecified)

[1.01, 1.01, 1.01]

----------
Test: chemical genetic growth profiling, strain panel (AID 1159580);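 further: tested at 20 µM; growth read once vehicle control cultures reached saturation at 30 °C; 1 = growth at the plate median or of vehicle wells; lower values mean less growth of the strain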
Details: S. cerevisiae deletion strains, growth OD, locus YHR079C, strain IRE1, hits give low values
Among all 5,500 compounds or so, about 2,000 (36%) were called active. Inconclusive results (about 18%) are left out. The list shows a part of the results.
Strictly below 1 in normalized growth: Criterion met. Otherwise: Criterion not met.

Solved cases (5 shown):
compound	label value
CCn1cc(C(=O)O)c(=O)c2cc(F)c(N3CCNCC3)nc21	Criterion not met
CNC(=O)O/N=C(\C)SC	Criterion not met
O=[N+]([O-])c1ccc(-c2noc(-c3ccno3)n2)o1	Criterion met
CN(C)CCCC1(c2ccc(F)cc2)OCc2cc(C#N)ccc21 (centres undefined)	Criterion not met
C[n+]1c2cc(N)ccc2cc2ccc(N)cc21	Criterion met

normalized growth strictly < 1 for this compound? `O=C(O)CCCc1ccccc1`
Criterion met

normalized growth strictly < 1 for this compound? CCn1cc(C(=O)O)c(=O)c2cc(F)c(N3CCNC(C)C3)c(F)c21 (centres undefined)
Criterion not met

normalized growth strictly < 1 for this compound? `CC1(C)S[C@@H]2[C@H](NC(=O)[C@H](N)c3ccccc3)C(=O)N2[C@H]1C(=O)O`
Criterion not met

normalized growth strictly < 1 for this compound? `Cc1c(C(=O)Sc2ccc(F)cc2F)sc2nc(C(F)(F)F)nn12`
Criterion met

normalized growth strictly < 1 for this compound? COc1cc([C@@H]2c3cc4c(cc3[C@@H](O)C3COC(=O)C32)OCO4)cc(OC)c1O (some centres undefined)
Criterion not met

normalized growth strictly < 1 for this compound? `N/C(Cn1ccc(C(F)(F)F)n1)=N/OS(=O)(=O)c1cccc(Cl)c1Cl`
Criterion not met

normalized growth strictly < 1 for this compound? CCC(C)C(=O)O[C@@H]1C[C@@]2(C)[C@H](c3ccoc3)OC(=O)CC23OC2(C)O[C@]14[C@]1(C)[C@@H](CC(=O)OC)C5(C)CC1(O)[C@](O)(C5OC(=O)C1(C)OC1C)[C@@H](OC(C)=O)[C@]34O2 (some centres undefined)
Criterion met

normalized growth strictly < 1 for this compound? OCC(O)CN1CCN(c2ccccc2)CC1 (centres undefined)
Criterion met

----------
Test: chemical genetic growth profiling, strain panel (AID 1159580);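 further: tested at 20 µM; growth read once vehicle control cultures reached saturation at 30 °C; 1 = growth at the plate median or of vehicle wells; lower values mean less growth of the strain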
Conditions: S. cerevisiae deletion strains, growth OD, locus YKR026C, strain gcn3, hits give low values
Among all 5,500 compounds or so, about 2,000 (36%) were called active. Not shown: some 18% with an inconclusive outcome. Some of the results follow.
Strictly below 1 in normalized growth: Criterion met. Otherwise: Criterion not met.

normalized growth strictly < 1 for this compound? `c1ccc2c(c1)sc1ccccc12`
Criterion met

normalized growth strictly < 1 for this compound? `O=c1cccc2ccc(O)c(O)c2c1O`
Criterion met

----------
Test: chemical genetic growth profiling, strain panel (AID 1159580);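 further: tested at 20 µM; growth read once vehicle control cultures reached saturation at 30 °C; 1 = growth at the plate median or of vehicle wells; lower values mean less growth of the strain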
Conditions: S. cerevisiae deletion strains, growth OD, locus YLR357W, strain rsc2, hits give low values
The whole screen tested about 5,500 compounds, of which about 2,000 (36%) were called active. Not shown: some 18% with an inconclusive outcome. Some of the results follow.
Strictly below 1 in normalized growth: label 1. Otherwise: label 0.

Solved cases (5 shown):
molecule	label value
COc1ccc(C(CN(C)C)C2(O)CCCCC2)cc1 (centres undefined)	label 1
COc1ccc(-c2coc3cc(O)ccc3c2=O)cc1	label 1
COc1ccc(-c2coc3cc(O)ccc3c2=O)c(OC)c1O	label 1
COc1ccc(C(c2ccc(OC)cc2)C(Cl)(Cl)Cl)cc1	label 0
Cc1ccc(S(=O)(=O)NC(=O)NN2CCCCCC2)cc1	label 1

// switching to the query molecule
normalized growth strictly < 1 for this molecule? `CC[C@@H]1C=C/C=C/C[C@H](C)[C@@H](O)[C@](C)(O)C(=O)[C@H](C)[C@@H](O)[C@H](C)C(=O)[C@H](C)[C@@H](O)[C@H](C)/C=C/C(=O)O[C@H]2[C@@H](C)[C@@H](CC1)O[C@@]1(CC[C@@H](C)[C@@H](C[C@H](C)O)O1)[C@@H]2C`
label 0

Values were extracted from PubChem BioAssay AID1159580.
